Test system: UACC-62 melanoma
protocol_text: NCI tumour cell line growth inhibition, 48 h
reported_endpoint: TGI

molecule=c1cc2c(cc1C(N1CCNCC1)N1CCNCC1)OCO2 measured_target="UACC-62 melanoma" reported_endpoint=TGI recorded_value="> 100 µM"

Query TGI for N#Cc1ccc(/C=N/NC(=O)CSCC(=O)N/N=C/c2ccc(C#N)cc2)cc1
> 100 µM

Quote TGI reported for [N-]=[N+]=C(C(=O)OCC#CCOC(=O)C(=[N+]=[N-])S(=O)(=O)c1ccccc1)S(=O)(=O)c1ccccc1 please.
> 10 µM

Identify the reported TGI for the following entry. Nc1ccccc1/C=C\c1ccccc1
> 100 µM

For the molecule CC1(C)OC[C@@H]([C@@]2(CO[Si](C)(C)C(C)(C)C)CC=CC(=O)O2)O1 , give its reported TGI.
44.6 µM

Could you please provide reported TGI for O=C(CCCC1Cc2ccccc2C1=O)c1ccccc1 (centres undefined) ? Thanks!
> 100 µM

Quickly give me recorded TGI for COc1ccc2c(c1)c(=O)c1c(NCCCN(C)CCCNc3ccc4c(=O)n(CCN(C)C)c(=O)n5c6ccc(OC)cc6c(=O)c3c45)ccc3c(=O)n(CCN(C)C)c(=O)n2c31
0.956 µM

Retrieve TGI measured for O=c1c(/C=C/c2c(O)ccc3ccccc23)nnc2sc(-c3cccc([N+](=O)[O-])c3)nn12 and print it.
43.9 µM

Read off the recorded TGI for O=C(CNC(=O)OCc1ccccc1)Oc1ccccc1
> 100 µM
